Assay: Solubility at pH 2.3 to 9.2
Format: physicochemical
Conditions: buffer
property_label: solubility (µg/mL)
// note: answer is a bare numeric in µg/mL

solubility lookup needed for Nc1nc2c(ncn2COCCO)c(=O)[nH]1 , thanks. 1000

* * *

Experiment: Cmax in iv dosed adult horse
Format: ADME, organism-based, Equus caballus
Set-up: route intravenous
Details: in vivo
property_label: Cmax (ng/mL)
// note: answer is a bare numeric in ng/mL

Cmax lookup needed for Nc1nc2c(ncn2COCCO)c(=O)[nH]1 , thanks. 10400

* * *

Assay: Mean residence time in iv dosed adult horse
Format: ADME, organism-based, Equus caballus
Settings: in vivo
property_label: MRT (h)
// note: answer is a bare numeric in h

MRT lookup needed for Nc1nc2c(ncn2COCCO)c(=O)[nH]1 [ACYCLOVIR] , thanks. 7.09

Where do the numbers come from? From ChEMBL document CHEMBL1151420.
